- STUDY SYSTEM: PhlH (Pseudomonas fluorescens, UniProt Q4JIX5, L186A)
- Sequence (Q4JIX5 1-225 L186A): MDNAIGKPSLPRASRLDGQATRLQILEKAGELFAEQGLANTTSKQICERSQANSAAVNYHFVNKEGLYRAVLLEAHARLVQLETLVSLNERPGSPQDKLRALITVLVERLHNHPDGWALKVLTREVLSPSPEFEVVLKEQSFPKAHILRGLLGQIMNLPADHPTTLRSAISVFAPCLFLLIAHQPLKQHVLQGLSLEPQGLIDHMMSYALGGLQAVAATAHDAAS
- TEST PROTOCOL: isothermal titration calorimetry
PROPERTY MEASURED: Kd
Kindly report the value followed by its unit.

Data request, read-out Kd, for `CC(=O)c1c(O)cc(O)c(C(C)=O)c1O`
15.4 µM

====

- STUDY SYSTEM: PhlH (Pseudomonas fluorescens, UniProt Q4JIX5, H76A)
- TEST PROTOCOL: isothermal titration calorimetry
PROPERTY MEASURED: pKd
Remember the convention: pKd equals -log10 of concentration in molar.

Given the entry `CC(=O)c1c(O)cc(O)c(C(C)=O)c1O` , what pKd was observed with PhlH (Pseudomonas fluorescens, UniProt Q4JIX5, H76A)?
4.96

====

- STUDY SYSTEM: PhlH (Pseudomonas fluorescens, UniProt Q4JIX5, L85A)
- TEST PROTOCOL: isothermal titration calorimetry
PROPERTY MEASURED: pKd
Remember the convention: pKd equals -log10 of concentration in molar.

Data request, read-out pKd, for `CC(=O)c1c(O)cc(O)c(C(C)=O)c1O`
4.41

====

- STUDY SYSTEM: PhlH (Pseudomonas fluorescens, UniProt Q4JIX5, F173A)
- TEST PROTOCOL: isothermal titration calorimetry
PROPERTY MEASURED: pKd
Remember the convention: pKd equals -log10 of concentration in molar.

Given the entry `CC(=O)c1c(O)cc(O)c(C(C)=O)c1O` , what pKd was observed with PhlH (Pseudomonas fluorescens, UniProt Q4JIX5, F173A)?
4.69

====

- STUDY SYSTEM: PhlH (Pseudomonas fluorescens, UniProt Q4JIX5, R124A)
- TEST PROTOCOL: isothermal titration calorimetry
PROPERTY MEASURED: pKd
Remember the convention: pKd equals -log10 of concentration in molar.

Data request, read-out pKd, for `CC(=O)c1c(O)cc(O)c(C(C)=O)c1O`
4.88

Reference source for all entries: paper PMC9163588
